# Experiment summary: physchem
# Details: buffer, pH 7.4
Measured chromatographic logD of individual entries
Endpoint name: chromatographic logD

| Compound smiles | Endpoint name | Result |
| --- | --- | --- |
| CN1C[C@H](Nc2nnc(-c3ccc(C(F)(F)F)cc3O)c3ccnn23)CC(F)(F)C1 | chromatographic logD | 3.85 |
| Cc1cc(C(F)(F)F)cc(O)c1-c1nnc(N[C@@H]2CCCN(C)C2)n2nccc12 | chromatographic logD | 1.73 |

---

# Experiment summary: in vivo
# Details: male, CD1, mouse, brain and plasma, po
Endpoint name: Kp uu

| Compound smiles | Result |
| --- | --- |
| Cc1cc(C(F)(F)F)cc(O)c1-c1nnc(N[C@@H]2CCCN(C)C2)n2nccc12 | 0.056 |
